# Tested target: human serotonin transporters (Homo sapiens)
# Construct: expressed in transfected cells; membrane homogenates
# Sequence (P31645 whole entry): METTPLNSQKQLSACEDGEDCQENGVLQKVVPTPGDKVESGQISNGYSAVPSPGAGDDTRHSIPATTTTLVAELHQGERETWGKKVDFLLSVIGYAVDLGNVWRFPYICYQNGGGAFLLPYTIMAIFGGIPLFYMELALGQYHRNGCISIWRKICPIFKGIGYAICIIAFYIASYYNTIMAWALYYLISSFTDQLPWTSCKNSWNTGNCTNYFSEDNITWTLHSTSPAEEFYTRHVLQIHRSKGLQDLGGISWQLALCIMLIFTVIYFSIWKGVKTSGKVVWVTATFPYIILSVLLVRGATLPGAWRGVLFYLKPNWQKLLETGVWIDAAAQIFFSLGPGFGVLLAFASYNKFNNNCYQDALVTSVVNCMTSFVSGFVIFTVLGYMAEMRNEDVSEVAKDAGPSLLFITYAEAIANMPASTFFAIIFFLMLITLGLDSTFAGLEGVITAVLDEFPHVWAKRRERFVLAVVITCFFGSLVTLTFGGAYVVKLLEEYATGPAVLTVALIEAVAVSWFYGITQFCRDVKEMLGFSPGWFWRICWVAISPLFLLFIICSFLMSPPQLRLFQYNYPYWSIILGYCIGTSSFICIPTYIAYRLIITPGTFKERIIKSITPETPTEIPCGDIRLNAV
# Assay comment: Serotonin Transporter Binding Assay ([3H]-citalopram displacement, HEK-hSERT cell membranes)
# Study conditions: 5-HT reuptake binding Ki, 1 nM [3H]-citalopram, 1 hr at 25° C.
pKi: −log10 of the molar value.
Value kind: pKi

Some solved cases for reference:
CCN(C)C[C@H]1CCC[C@@H]1c1c[nH]c2ccc(C#N)cc12 (relative stereo): 8.00 to 9.00
N#Cc1ccc2[nH]cc([C@H]3CCC[C@@H]3CN3CCCC3)c2c1 (relative stereo): 8.00 to 9.00

Data request: Suppose we examine the compound CCN(CC)C[C@H]1CCC[C@@H]1c1c[nH]c2ccc(C#N)cc12 (relative stereo) ; what pKi value has been reported?
Data returned: 6.30 to 7.00

Data request: Suppose we examine the compound CN(C)C[C@H]1CCC[C@@H]1c1c[nH]c2ccc(C#N)cc12 (racemic) [Example 25] ; what pKi value has been reported?
Data returned: > 9.00

Data request: Suppose we examine the compound CN(C)C[C@H]1CCC[C@@H]1c1cn(C)c2ccc(C#N)cc12 (relative stereo) ; what pKi value has been reported?
Data returned: 8.00 to 9.00

Data request: Suppose we examine the compound CN(C)C[C@@H]1CCC[C@H]1c1c[nH]c2ccc(C#N)cc12 (single isomer, unassigned; enantiomer a) ; what pKi value has been reported?
Data returned: 7.00 to 8.00

Data request: Suppose we examine the compound CCNC[C@H]1CCC[C@@H]1c1c[nH]c2ccc(C#N)cc12 (relative stereo) ; what pKi value has been reported?
Data returned: 7.00 to 8.00

Data request: Suppose we examine the compound CC([C@H]1CCCC1c1c[nH]c2ccc(C#N)cc12)N(C)C (single isomer, unassigned; diastereomer a) ; what pKi value has been reported?
Data returned: > 9.00

Data request: Suppose we examine the compound CN(C)C[C@H]1CCC[C@@H]1c1c[nH]c2ccc(C#N)cc12 (single isomer, unassigned; enantiomerb) [Example 45] ; what pKi value has been reported?
Data returned: > 9.00

* * *

# Tested target: human serotonin transporters (Homo sapiens)
# Construct: expressed in transfected cells; membrane homogenates
# Assay comment: Serotonin Transporter Binding Assay ([3H]-citalopram displacement, HEK-hSERT cell membranes)
# Study conditions: 1 nM [3H]-citalopram, 1 hr at 25° C., read-out: 5-HT reuptake binding Ki
Measured Ki accompanies every entry in the list below.

Some solved cases for reference:
N#Cc1c[nH]c2ccc([C@H]3CCC[C@@H]3CN3CCCC3)cc12 (relative stereo) [Example 36]: 100 to 500 nM
CCC([C@H]1CCC[C@@H]1c1c[nH]c2ccc(C#N)cc12)N(C)C (mixture of isomers) [Example 50]: 10 to 100 nM
CCn1cc([C@H]2CCC[C@@H]2CN(C)C)c2cc(C#N)ccc21 (relative stereo) [Example 33]: 1 to 10 nM
CN(Cc1ccccc1)C[C@H]1CCC[C@@H]1c1ccc2[nH]cc(C#N)c2c1 (relative stereo) [Example 40]: 10 to 100 nM
CC([C@H]1CCCC1c1c[nH]c2ccc(C#N)cc12)N(C)C (single isomer, unassigned) [Example 49]: < 1 nM

Data request: Suppose we examine the compound CCN(CC)C[C@H]1CCC[C@@H]1c1ccc2[nH]cc(C#N)c2c1 (relative stereo) [Example 39] ; what Ki value has been reported?
Data returned: 100 to 500 nM

Data request: Suppose we examine the compound CC([C@H]1CCCC1c1c[nH]c2ccc(C#N)cc12)N(C)C (single isomer, unassigned) [Example 48] ; what Ki value has been reported?
Data returned: 10 to 100 nM
